Measured MIC of ATM in the presence of compound, listed per entry.
Tested on: P. aeruginosa
Test: Checkerboard assay (antibiotic + adjuvant combination MIC)
Type: cell-based, Pseudomonas aeruginosa
Conditions: PA O200 (efflux-deficient); compound at 8 μM
Your answer is read as µg/mL, so omit the unit and give the number.

N=C(N)NC[C@H]1O[C@H](O[C@H]2[C@H](OCCCCCCCCCCCCN3CCN(c4cc5c(cc4F)c(=O)c(C(=O)O)cn5C4CC4)CC3)[C@@H](O[C@H]3O[C@H](CO)[C@@H](O)[C@H](NC(=N)N)[C@H]3O)[C@H](NC(=N)N)C[C@@H]2NC(=N)N)[C@H](NC(=N)N)C[C@@H]1O [Compound 27]: 0.06
NC[C@H]1O[C@H](O[C@H]2[C@H](OCCCCc3cn(CCCCO[C@@H]4[C@@H](O)[C@H](N)C[C@H](N)[C@H]4O[C@H]4O[C@H](CN)[C@@H](O)C[C@H]4N)nn3)[C@@H](O)[C@H](N)C[C@@H]2N)[C@H](N)C[C@@H]1O [Compound 26, Nebramine Homodimer]: 0.06
Cl.Cl.Cl.Cl.Cl.NC[C@H]1O[C@H](O[C@H]2[C@H](OCCCCCCCCCCCCN3CCN(c4cc5c(cc4F)c(=O)c(C(=O)O)cn5C4CC4)CC3)[C@@H](O)[C@H](N)C[C@@H]2N)[C@H](N)C[C@@H]1O [Compound 24]: 0.03

With those in mind, consider the next compound.
Exercise: Would you mind telling me what MIC of ATM in the presence of compound value was observed for Cl.Cl.Cl.Cl.Cl.Cl.NC[C@H]1O[C@H](O[C@H]2[C@H](OCCCCCCCCCCCCN3CCN(c4cc5c(cc4F)c(=O)c(C(=O)O)cn5C4CC4)CC3)[C@@H](O[C@H]3O[C@H](CO)[C@@H](O)[C@H](N)[C@H]3O)[C@H](N)C[C@@H]2N)[C@H](N)C[C@@H]1O [Compound 21, Tobramycin-ciprofloxacin] ?
Solution: 0.03

Origin of the recorded values: patent US20220249441A1
